Cited source for all entries: patent US20160305952A1

- Measured Target: T1, Tumor Necrosis Factor Alpha (human, UniProt P01375 77-233)
- T1 construct: also called TNFα; TNF-α
- T1 sequence (P01375 77-233 limits assumed): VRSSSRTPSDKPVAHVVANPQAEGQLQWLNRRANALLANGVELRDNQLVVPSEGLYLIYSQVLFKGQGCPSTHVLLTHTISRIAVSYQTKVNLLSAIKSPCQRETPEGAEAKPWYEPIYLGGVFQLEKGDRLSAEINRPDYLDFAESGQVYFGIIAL
- Experimental Details: peptide array, 5-mer library, 5Z linker
Where no end group is shown, it is not given here.
Outcome Measure: binding result

AIAIF (also: array-bound via 5Z linker)
binds
TAVFV (also: array-bound via 5Z linker)
binds
ALYLF (also: array-bound via 5Z linker)
binds
VTVYV (also: array-bound via 5Z linker)
binds
